Data credit: ChEMBL document CHEMBL4706531

# MEASURED ON: Histone deacetylase 1 (Homo sapiens)
# Sequence (Q13547 whole entry): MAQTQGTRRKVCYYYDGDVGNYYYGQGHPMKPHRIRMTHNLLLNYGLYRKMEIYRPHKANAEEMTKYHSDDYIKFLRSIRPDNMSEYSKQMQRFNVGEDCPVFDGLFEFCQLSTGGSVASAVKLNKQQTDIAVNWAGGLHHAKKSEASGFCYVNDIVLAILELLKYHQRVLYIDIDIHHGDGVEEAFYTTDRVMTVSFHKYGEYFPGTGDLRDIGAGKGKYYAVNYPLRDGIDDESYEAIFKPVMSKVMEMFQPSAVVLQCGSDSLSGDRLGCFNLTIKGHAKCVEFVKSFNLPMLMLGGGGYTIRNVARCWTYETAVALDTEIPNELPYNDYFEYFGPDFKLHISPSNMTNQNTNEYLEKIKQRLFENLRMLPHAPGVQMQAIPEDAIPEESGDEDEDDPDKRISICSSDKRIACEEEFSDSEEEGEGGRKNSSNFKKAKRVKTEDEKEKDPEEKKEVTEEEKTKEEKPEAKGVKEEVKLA
# CONDITION DESCRIPTION: Sf9, dose 100.0 nM, time 75.0 min
REPORTED METRIC: inhibition

Guide cases for inhibition, answers given:
| SMILES ENTRY | MEASURED VALUE |
| --- | --- |
| COc1cc2c(Oc3ccc(NC(=O)c4nn(-c5ccc(F)c(Cl)c5)cc(C)c4=O)cc3)ccnc2cc1OCCCCCCC(=O)NO | 40% |
| COc1cc2c(Oc3ccc(NC(=O)c4nn(-c5ccccc5C)cc(C)c4=O)cc3)ccnc2cc1OCCCCCC(=O)NO | 36.9% |
| COc1cc2c(Oc3ccc(NC(=O)c4nn(-c5ccccc5C(F)(F)F)ccc4=O)cc3)ccnc2cc1OCC(=O)NO | 1.2% |
| COc1cc2c(Oc3ccc(NC(=O)c4nn(-c5ccccc5C)ccc4=O)cc3)ccnc2cc1OCCCCCC(=O)NO | 62.1% |

response.value for COc1cc2c(Oc3ccc(NC(=O)c4nn(-c5ccc(C)cc5)cc(C)c4=O)cc3)ccnc2cc1OCCCCCCC(=O)NO (field: inhibition) = 47.6%

response.value for COc1cc2c(Oc3ccc(NC(=O)c4nn(-c5ccccc5)cc(C)c4=O)cc3)ccnc2cc1OCCCCCCC(=O)NO (field: inhibition) = 86.6%

response.value for COc1cc2c(Oc3ccc(NC(=O)c4nn(-c5ccccc5)cc(C)c4=O)cc3F)ccnc2cc1OCCCC(=O)NO (field: inhibition) = 2.5%

response.value for COc1cc2c(Oc3ccc(NC(=O)c4nn(-c5cccc(C(F)(F)F)c5)cc(C)c4=O)cc3)ccnc2cc1OCCCCCCC(=O)NO (field: inhibition) = 35.3%

response.value for COc1cc2c(Oc3ccc(NC(=O)c4nn(-c5ccc(Cl)c(C(F)(F)F)c5)cc(C)c4=O)cc3)ccnc2cc1OCC(=O)NO (field: inhibition) = 5.2%
